Experiment Notes: NOVARTIS: Cytotoxicity against human hepatocellular carcinoma cell line (Huh7)
Assay type: toxicity, cell-based, Huh-7
Test Context: Huh7 cells (hepatocellular carcinoma cell line)
Quick reference: CC50 of the listed items.
Measured Metric: CC50

>>> print(df.to_string())
                                   molecule  measured_metric  reported_result
0  O=C1CN=C(c2ccccc2)c2cc(Cl)ccc2N1Cc1cc(=O)n2ccccc2n1             CC50         > 100 µM
1  O=S1(=O)CCC(O)c2ccsc21 (stereo not given)             CC50         > 100 µM
2           CC(=O)Nc1cccc(NC(=O)C(F)(F)F)c1             CC50          > 10 µM
3  Cc1c(C)c2c(c(C)c1O)CC[C@](C)(CN1CCN(c3cc(N4CCCC4)nc(N4CCCC4)n3)CC1)O2             CC50            42 µM
4  Cc1cc(N2CCN(Cc3ccc(F)cc3)CC2)n2c(nc3ccccc32)c1C#N             CC50         > 100 µM
5  CCOC(=O)c1c(C)n(-c2ccccc2)c2ccc(OC(=O)C3CC3)cc12             CC50         > 100 µM
6  CN(Cc1ccccc1)C(=O)CCNS(=O)(=O)c1cc(Br)cnc1N             CC50          > 10 µM
7  COc1cc(NC(C)CCCN(Cc2ccc(N(C)C)cc2)C(=O)c2ccc(F)cc2)c2ncccc2c1 (stereo not given)             CC50          > 10 µM
8  CCCCCCN(C(=O)c1cccc(F)c1)C(CC)c1nc2ccccc2c(=O)n1-c1ccccc1OC (stereo not given)             CC50        > 7.32 µM
9  S=C(NN=Cc1ccccn1)NC1CC2C=CC1C2 (stereo not given)             CC50          44.3 µM

* * *

Experiment Notes: NOVARTIS: Cytotoxicity against human hepatocellular carcinoma cell line (Huh7)
Type: toxicity, cell-based, Huh-7
Test Context: Huh7 cells (hepatocellular carcinoma cell line)
Measured Metric: CC50 (µM)

>>> print(df.to_string())
                                   compound  unit_of_measurement  comparison_symbol  reported_result
0  OC(CN1CCN(C2c3ccccc3-c3ccccc32)CC1)Cn1c2ccc(Br)cc2c2cc(Br)ccc21 (stereo not given)                   µM                  >              100
1  COc1ccc(C=CC(=O)Nc2ccc3nc(N4CCN(C)CC4)cc(C)c3c2)cc1OC                   µM                  =             55.2
2                 CC(=C(Cl)Cl)C(Br)=C(Br)CO                   µM                  =             50.9
3  COc1ccccc1NC1=CC(=NS(=O)(=O)c2cccs2)c2ccccc2C1=O                   µM                  =             19.7
4  Cn1nccc1C(OCC(=O)N1CCOCC1)c1ccc(F)cc1 (stereo not given)                   µM                  >               10
5  COc1cc2nc(NCc3cccnc3)n3nc(-c4ccccc4)nc3c2cc1OC                   µM                  >              100
6  CCOC(=O)c1ccc(OCC2c3cc(OC)c(OC)cc3CCN2C(=O)Nc2ccc(Cl)cc2)cc1 (stereo not given)                   µM                  >              100
7  Oc1cccc(Nc2nc(NCC3CCCO3)c3ccccc3n2)c1 (stereo not given)                   µM                  =             6.98
8        C[n+]1ccc(/C=C/c2ccccc2F)c2ccccc21                   µM                  >               10
9  CCOC(=O)C1=C(C)N/C(=C\c2cc(C)n(-c3cccc(Br)c3)c2C)C1=O                   µM                  >               10
